test_description: chemical genetic growth profiling, strain panel (AID 1159580);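 note: tested at 20 µM; growth read once vehicle control cultures reached saturation at 30 °C; 1 = growth at the plate median or of vehicle wells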
test_settings: S. cerevisiae deletion strains, growth OD, locus YDL101C, strain DUN1, active compounds read low
Among all 5,500 compounds or so, about 2,000 (36%) were called active. Another 18% or so got no clear call; they are omitted. Some of the results follow.
assay_endpoint: normalized growth
One number for each entry.

# example entries with known answers
INSERT INTO assay_data (smiles, reading) VALUES
  ('CC(=O)Oc1ccc2c(=O)c(Oc3ccc(Cl)cc3)c(C)oc2c1', 0.951),
  ('O=S(=O)(Nc1ccc(-n2nc(C(F)(F)F)cc2-c2cccs2)cc1)c1ccc(F)cc1', 0.993),
  ('CCCCc1ccc(N=CNO)c(C)c1', 0.914);

Please report normalized growth for every entry that follows.
1. COc1ccc(-c2cc(NS(=O)(=O)c3cccc(F)c3)n(-c3ccc(Cl)c(Cl)c3)n2)cc1
2. COc1ccc2c(=O)c(CC(=O)O)coc2c1
3. COC(=O)c1ccc(Oc2c(C(F)(F)F)oc3cc(O)ccc3c2=O)cc1
4. Cc1ccc(C(=O)Nc2ccc3ccccc3n2)cc1
5. NC(=S)c1ccc2nonc2c1

**Result**
1: 0.979; 2: 0.987; 3: 0.982; 4: 0.96; 5: 0.984

Give measured normalized growth for every item shown.
1. CN1CCN(C(c2ccccc2)c2ccccc2)CC1
2. N/C(=N/OC(=O)C(Cl)Cl)c1cccc(Cl)c1Cl

**Result**
1: 1; 2: 0.943

Parameter requested: normalized growth. Apply to each item below.
1. N/C(=N/OC(=O)c1ccccc1Cl)c1cccc(CS(=O)(=O)c2ccc(Cl)cc2)c1
2. COC(=O)c1c(OC)ccc(N=CNO)c1OC

**Result**
1. 0.982
2. 0.993

###

test_description: chemical genetic growth profiling, strain panel (AID 1159580)
test_settings: S. cerevisiae deletion strains, growth OD, locus YKL048C, strain ELM1, active compounds read low
Among all 5,500 compounds or so, about 2,000 (36%) were called active. Not shown: some 18% with an inconclusive outcome. This is one part of the list.
assay_endpoint: normalized growth
Answers are plain numbers.

Examples with answers:
INSERT INTO measurements (compound, assay_endpoint, reading) VALUES
  ('CN(C)c1nc(=S)ss1', 'normalized growth', 0.228),
  ('C(=NC(N=Cc1ccccc1)c1ccccc1)c1ccccc1 (stereo not drawn)', 'normalized growth', 0.957),
  ('CCOC(=O)C1C(c2ccc(Br)cc2)C(C(=O)OCC)C(O)(C(F)(F)F)NC1(O)C(F)(F)F (stereo not drawn)', 'normalized growth', 0.986),
  ('Cc1nc(C(F)(F)F)ccc1C(=O)Sc1nnc(-c2ccc(C(F)(F)F)nc2C)o1', 'normalized growth', 0.937),
  ('O=C(NNc1c(Cl)cccc1Cl)c1ccc([N+](=O)[O-])o1', 'normalized growth', 0.909);

Please state normalized growth for every compound in the list that follows.
1. CCC1(c2ccccc2)OC(c2cc(Cl)cc(Cl)c2O)Nc2ccccc21 (stereo not drawn)
2. COc1cccc(C(=O)C(C#N)=C(SC)SC)c1
3. CCCCCc1ccc(-c2nc(SCC(C)=O)n[nH]2)cc1

**Result**
1: 0.717; 2: 0.45; 3: 0.688

###

test_description: chemical genetic growth profiling, strain panel (AID 1159580)
test_settings: S. cerevisiae deletion strains, growth OD, locus YOR270C, strain vph1, active compounds read low
Hit rate of the full screen: of about 5,500 compounds, about 2,000 (36%) were called active. Another 18% or so got no clear call; they are omitted. This is one part of the list.
Cut-off 1 on normalized growth: below means T, at or above means F.

INSERT INTO measurements (smiles, label_value) VALUES
  ('Cc1cccc(N(C)C(=S)Oc2ccc3ccccc3c2)c1', 'T');

**Query** For O=c1[nH]cnc2nc[nH]c12 , is the recorded normalized growth below the cut-off of 1?
**Result** F

**Query** Check if normalized growth falls below 1 for C[C@H]1C(=O)O[C@@H]2CCN3CC=C(COC(=O)[C@](C)(O)[C@]1(C)O)[C@H]23 .
**Result** T

**Query** Hi there! Is normalized growth for CCCCCN=C(N)N/N=C\c1c[nH]c2ccc(OC)cc12 below 1, do you know?
**Result** F

**Query** Determine if CCCCC/C=C\C/C=C\C/C=C\C/C=C\CCCC(=O)O shows normalized growth strictly lower than 1.
**Result** T

###

Please go through the items and note down their normalized growth.
test_description: chemical genetic growth profiling, strain panel (AID 1159580)
test_settings: S. cerevisiae deletion strains, growth OD, locus YER002W, strain NOP16, active compounds read low
Hit rate of the full screen: of about 5,500 compounds, about 2,000 (36%) were called active. Inconclusive results (about 18%) are left out. The list shows a part of the results.
One number for each entry.

INSERT INTO measurements (molecule, assay_endpoint, reading) VALUES
  ('NC(N)=N[C@@H](CCC(=O)O)C(=O)O', 'normalized growth', 1),
  ('CSc1nc(N)c2ncn([C@@H]3O[C@H](COP(=O)(O)OP(=O)(O)O)[C@H](O)C3O)c2n1 (stereo partly specified)', 'normalized growth', 1),
  ('CCOC(=O)c1ncn2c1[C@@H]1CCCN1C(=O)c1cc(OC)ccc1-2', 'normalized growth', 1.01),
  ('CCCCN1CCC(n2c(=O)[nH]c3ccccc32)CC1', 'normalized growth', 0.994);

Could you tell me normalized growth for each of these molecules? They are listed below.
1. CN=C(N)NCCC[C@H](N)C(=O)O
2. COc1ccc(-c2ccc(N)[n+](CCCC(=O)O)n2)cc1
3. CCCCCC(CC(=O)NO)C(=O)NC(C(=O)N1CCCC1CO)C(C)C (stereo unspecified)

**Result**
[0.992, 0.993, 0.971]

###

Please respond with reported normalized growth for every item in the list.
test_description: chemical genetic growth profiling, strain panel (AID 1159580);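 note: tested at 20 µM; growth read once vehicle control cultures reached saturation at 30 °C; 1 = growth at the plate median or of vehicle wells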
test_settings: S. cerevisiae deletion strains, growth OD, locus YHR030C, strain SLT2, active compounds read low
Hit rate of the full screen: of about 5,500 compounds, about 2,000 (36%) were called active. About 18% were inconclusive and are not listed. The list shows a part of the results.
Give bare numbers.

Worked cases, answers included:
INSERT INTO assay_data (compound, assay_endpoint, reading) VALUES
  ('Cc1onc(-c2c(F)cccc2Cl)c1C(=O)N1CCN(c2ncccc2C(F)(F)F)CC1', 'normalized growth', 0.928),
  ('N#C/C(=C\C=C\c1ccccc1)c1nc2ccccc2[nH]1', 'normalized growth', 0.673),
  ('Cc1c(Cl)cccc1N=C1SCC(=O)N1Cc1ccco1', 'normalized growth', 0.758),
  ('O=C1CSC(=Nc2cc(Cl)cc(Cl)c2)N1Cc1cccnc1', 'normalized growth', 1.14),
  ('CN(C)c1nc(=S)ss1', 'normalized growth', 0.576);

Please supply normalized growth for each of the following items, keeping them in order.
1. COc1ccccc1N=C1SCC(=O)N1Cc1ccco1
2. CC(O)Cn1cnc2c1c(=O)n(C)c(=O)n2C (centres undefined)
3. CC(=O)Oc1ccc2c(=O)c(Oc3ccc(Cl)cc3)c(C)oc2c1
4. CCOC(=O)C1=C(C)NC(C)=C(C(=O)OC)C1c1cccc([N+](=O)[O-])c1 (centres undefined)
5. FC(F)(F)c1ccc(-n2cncn2)nc1

**Result**
0.956
1.05
0.802
1.01
1.09

###

test_description: chemical genetic growth profiling, strain panel (AID 1159580);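 note: tested at 20 µM; growth read once vehicle control cultures reached saturation at 30 °C; 1 = growth at the plate median or of vehicle wells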
test_settings: S. cerevisiae deletion strains, growth OD, locus YHR013C, strain ard1, active compounds read low
About 2,000 (36%) of roughly 5,500 compounds were called active. About 18% were inconclusive and are not listed. The list shows a part of the results.
Label Fulfilled when normalized growth is strictly below 1; at or above that, label Not fulfilled.

INSERT INTO assay_data (compound, label_value) VALUES
  ('COc1cc(OC)c2c(c1Cl)OC1(C2=O)C(O)=CC(=O)CC1C (stereo not given)', 'Not fulfilled'),
  ('CC(C)=CCC1=C(O)c2ccccc2C(=O)C1=O', 'Fulfilled'),
  ('C=C(C)c1cc2cc(C(C)=O)c(O)cc2o1', 'Fulfilled'),
  ('O=C(O)CCCN1C(=O)c2cccc3cccc(c23)C1=O', 'Fulfilled'),
  ('CC(=O)O[C@@H]1CC2C(C)(C)[C@H](O)C[C@H](O)[C@]2(C)C2CC[C@@]3(C)C(=CC(=O)O[C@H]3c3ccoc3)[C@@]21C (stereo not given in full)', 'Fulfilled');

Next compound, please.
**Query** Lab note: confirm whether the reported normalized growth for this compound is below 1, equality not counting. compound: CC(C(=O)O)c1ccc(N2Cc3ccccc3C2=O)cc1 (stereo not given)
**Result** Fulfilled

###

test_description: chemical genetic growth profiling, strain panel (AID 1159580);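 note: tested at 20 µM; growth read once vehicle control cultures reached saturation at 30 °C; 1 = growth at the plate median or of vehicle wells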
test_settings: S. cerevisiae deletion strains, growth OD, locus YBR136W, strain MEC1, active compounds read low
Hit rate of the full screen: of about 5,500 compounds, about 2,000 (36%) were called active. Roughly 18% stayed inconclusive and do not appear here. The list shows a part of the results.
Could you please report measured normalized growth for the items listed next?
Numbers only.

The examples below pair each entry with its known result.
INSERT INTO measurements (molecule, assay_endpoint, reading) VALUES
  ('O=C(Oc1ccc(C2SCCS2)cc1)c1cccs1', 'normalized growth', 1.01),
  ('Cc1oc(-c2ccc(Cl)cc2)cc1C(=O)N1CCN(c2ccc(C(F)(F)F)cn2)CC1', 'normalized growth', 0.963),
  ('N#C/C(=N/Nc1ccc(C(F)(F)F)cc1)C(=O)C1CC1', 'normalized growth', 0.942),
  ('CC(Oc1ccc(Cl)cc1Cl)C(=O)NNC(=S)Nc1ccccc1 (stereo unspecified)', 'normalized growth', 0.98),
  ('N#CC(C#N)=NNc1cc(C(F)(F)F)ccc1OCC(F)(F)F', 'normalized growth', 0.894);

Please report normalized growth for every entry that follows.
1. N#C/C(=C\c1ccc(C(F)(F)F)cc1)c1ccc(O)cc1
2. COc1cc(OC)cc(/C(N)=N\O)c1
3. Cc1nc([N+](=O)[O-])cn1CC(=O)c1ccc(Cl)cc1
4. O=C(c1ccc(Cl)cc1)N1CCN(c2ccc(C(F)(F)F)cn2)CC1
5. CC(NC(=S)Nc1ccc(Oc2ccc(Cl)cc2)cc1)c1ccccc1 (stereo unspecified)
6. O=C1CSC(=Nc2cc(Cl)cc(Cl)c2)N1Cc1cccnc1

**Result**
[0.97, 0.975, 0.973, 0.988, 0.968, 0.986]
